- tgt: Norepinephrine transporter (Rattus norvegicus, UniProt Q9WTR4)
- Sequence (Q9WTR4 whole entry): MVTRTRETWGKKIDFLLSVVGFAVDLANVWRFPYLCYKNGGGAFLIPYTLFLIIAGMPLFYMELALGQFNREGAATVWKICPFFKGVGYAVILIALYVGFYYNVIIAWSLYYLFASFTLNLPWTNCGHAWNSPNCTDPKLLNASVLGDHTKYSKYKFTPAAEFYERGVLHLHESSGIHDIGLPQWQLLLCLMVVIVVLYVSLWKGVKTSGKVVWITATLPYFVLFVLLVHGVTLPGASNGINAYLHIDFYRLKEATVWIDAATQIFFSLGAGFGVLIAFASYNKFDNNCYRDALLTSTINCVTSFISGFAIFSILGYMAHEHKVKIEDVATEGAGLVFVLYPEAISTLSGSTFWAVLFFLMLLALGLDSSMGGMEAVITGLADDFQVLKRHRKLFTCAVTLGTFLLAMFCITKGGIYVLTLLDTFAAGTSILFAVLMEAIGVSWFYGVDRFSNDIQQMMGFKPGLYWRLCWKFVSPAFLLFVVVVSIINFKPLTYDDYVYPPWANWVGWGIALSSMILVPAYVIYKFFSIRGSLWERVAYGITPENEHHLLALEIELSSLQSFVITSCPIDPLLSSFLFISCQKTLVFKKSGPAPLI
observed_property: IC50 (µM)
Give the value in µM but do not write µM after it.

Reference set, count: 8
[
  {
    "molecule": "CN(C)C1C2CCC(CC2O)C1c1ccccc1 (stereo in doubt; 14)",
    "readout_number": 7.73
  },
  {
    "molecule": "CC(=O)OC1CC2CCC1C(N(C)C)C2c1ccccc1 (stereo in doubt; 17)",
    "readout_number": 46.8
  },
  {
    "molecule": "CC(=O)OC1CC2CCC1C(N(C)C)C2c1ccccc1 (stereo in doubt; 10)",
    "readout_number": 55.4
  },
  {
    "molecule": "COC(=O)[C@H](c1ccccc1)[C@H]1CCCCN1 [DEXMETHYLPHENIDATE]",
    "readout_number": 0.989
  },
  {
    "molecule": "CN(C)C1C2CCC(CC2=O)C1c1ccccc1 (stereo in doubt; 6)",
    "readout_number": 4.12
  },
  {
    "molecule": "CN(C)C1C2CCC(CC2OC(=O)c2ccccc2)C1c1ccccc1 (stereo in doubt; 12)",
    "readout_number": 1.47
  },
  {
    "molecule": "CN(C)C1C2CCC(CC2O)C1c1ccccc1 (stereo in doubt; 7)",
    "readout_number": 1.51
  },
  {
    "molecule": "CC(=O)OC1CC2CCC1C(N(C)C)C2c1ccccc1 (stereo in doubt; 9)",
    "readout_number": 0.535
  }
]

Give IC50 for this entry on Norepinephrine transporter (Rattus norvegicus, UniProt Q9WTR4): CN(C)C1C2CCC(CC2OC(=O)c2ccccc2)C1c1ccccc1 (stereo in doubt; 19)
4.19

---

- tgt: Monoamine transporters; Norepininephrine & dopamine (Rattus norvegicus) (UniProt P23977+Q9WTR4)
- test_protocol: Ratio of IC50 of NE (norepinephrine transporter) to IC50 of DA (dopamine transporter)
- Format: protein assay
# Ratio per entry
Give a plain numeric answer without units written out.

Before answering, review these 4 worked examples.
[
  {
    "compound": "CN(C)C1C2CCC(CC2OC(=O)c2ccccc2)C1c1ccccc1 (stereo in doubt; 11)",
    "Ratio": 0.65
  },
  {
    "compound": "CN(C)C1C2CCC(CC2=O)C1c1ccccc1 (stereo in doubt; 13)",
    "Ratio": 1
  },
  {
    "compound": "CC(=O)OC1CC2CCC1C(N(C)C)C2c1ccccc1 (stereo in doubt; 17)",
    "Ratio": 1
  },
  {
    "compound": "CN(C)C1C2CCC(CC2=O)C1c1ccccc1 (stereo in doubt; 6)",
    "Ratio": 1
  }
]

Return Ratio (reported value) for this compound: CC(=O)OC1CC2CCC1C(N(C)C)C2c1ccccc1 (stereo in doubt; 16)
0.76

Note down Ratio recorded for CN(C)C1C2CCC(CC2O)C1c1ccccc1 (stereo in doubt; 7)
0.85

Recall and state the measured Ratio for CC(=O)OC1CC2CCC1C(N(C)C)C2c1ccccc1 (stereo in doubt; 9) .
0.1

Return value of Ratio for input CN(C)C1C2CCC(CC2OC(=O)c2ccccc2)C1c1ccccc1 (stereo in doubt; 18) , no commentary.
3.4

Specify reported Ratio for the compound shown: CN(C)C1C2CCC(CC2O)C1c1ccccc1 (stereo in doubt; 15)
3.5
